- assayed.system: 3-keto-steroid reductase/17-beta-hydroxysteroid dehydrogenase 7 (Homo sapiens) (UniProt P56937)
- cond: HEK293, at 0.3 µM
- Description: Inhibition of human 17beta-HSD7 expressed in HEK293 cells assessed as inhibition of reduction of [14C]estrone into [14C]estradiol at 0.3 uM after 7 hrs
Rule: true for inhibition not less than 20%, false for anything less.

Has CC(=O)C1CC[C@@]2(CC[C@H]3[C@@H]4CCc5cc(O)ccc5[C@H]4CC[C@@]32C)OC1=O (some centres undefined) a recorded inhibition greater than or equal to 20%?
false

====

- assayed.system: 3-keto-steroid reductase/17-beta-hydroxysteroid dehydrogenase 7 (Homo sapiens) (UniProt P56937)
- Sequence (whole entry): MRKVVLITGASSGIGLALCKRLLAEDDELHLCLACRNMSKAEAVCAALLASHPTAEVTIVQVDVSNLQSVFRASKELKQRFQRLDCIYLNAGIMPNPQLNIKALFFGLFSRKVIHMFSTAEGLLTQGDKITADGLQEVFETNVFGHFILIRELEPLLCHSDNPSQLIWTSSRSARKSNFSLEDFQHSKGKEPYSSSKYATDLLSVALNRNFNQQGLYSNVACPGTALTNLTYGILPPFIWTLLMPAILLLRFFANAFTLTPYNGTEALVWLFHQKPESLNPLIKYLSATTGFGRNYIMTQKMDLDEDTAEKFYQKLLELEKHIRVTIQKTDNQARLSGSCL
- cond: HEK293, at 0.3 µM
Rule: y for inhibition not less than 10%, n for anything less.

CCC1(CC)CC[C@@]2(CC[C@H]3[C@@H]4CCc5cc(O)ccc5[C@H]4CC[C@@]32C)OC1=O; y
C[C@]12CC[C@@H]3c4ccc(S(N)(=O)=O)cc4CC[C@H]3[C@@H]1CCC2=O; n

Has C[C@]12CC[C@](O)(Cc3ccccc3)C[C@@H]1CC[C@@H]1[C@@H]2CC[C@]2(C)C(=O)CC[C@@H]12 a recorded inhibition greater than or equal to 10%?
y

One more compound: CC1(C)CC[C@@]2(CC[C@H]3[C@@H]4CCC5CC(=O)CC[C@]5(C)[C@H]4CC[C@@]32C)OC1=O (stereo not given in full)
n

One more compound: C[C@@]12CCC[C@H]1[C@@H]1CCc3cc(O)ccc3[C@H]1CC2
n

One more compound: CCCCCCCCCCCCN(C(=O)c1ccccc1Cl)[C@H]1CC[C@H]2[C@@H]3CC[C@H]4N(C)C(=O)CC[C@]4(C)[C@H]3CC[C@]12C
y
